experiment: Volume of distribution in dog; assay type: ADME, organism-based, Canis lupus familiaris; details: in vivo

{"columns": ["mol", "measure_unit", "Vd"],
 "data": [
  ["COC[C@H](C)Oc1cc(CCc2c(F)cccc2F)cc(C(=O)Nc2ccc(C(=O)O)cn2)c1", "L/kg", 0.49]
]}

* * *

assay: Volume of distribution in mouse; format: ADME, organism-based; details: in vivo
value_type: Vd (L/kg)

{"columns": ["mol", "endpoint_value"],
 "data": [
  ["COC[C@H](C)Oc1cc(CCc2c(F)cccc2F)cc(C(=O)Nc2ccc(C(=O)O)cn2)c1", 0.33]
]}

* * *

biological target: Hexokinase-4 (Homo sapiens, UniProt P35557); experiment: Induction of human pancreatic glucokinase activity at 5 mM glucose concentration
Sequence (P35557 whole entry): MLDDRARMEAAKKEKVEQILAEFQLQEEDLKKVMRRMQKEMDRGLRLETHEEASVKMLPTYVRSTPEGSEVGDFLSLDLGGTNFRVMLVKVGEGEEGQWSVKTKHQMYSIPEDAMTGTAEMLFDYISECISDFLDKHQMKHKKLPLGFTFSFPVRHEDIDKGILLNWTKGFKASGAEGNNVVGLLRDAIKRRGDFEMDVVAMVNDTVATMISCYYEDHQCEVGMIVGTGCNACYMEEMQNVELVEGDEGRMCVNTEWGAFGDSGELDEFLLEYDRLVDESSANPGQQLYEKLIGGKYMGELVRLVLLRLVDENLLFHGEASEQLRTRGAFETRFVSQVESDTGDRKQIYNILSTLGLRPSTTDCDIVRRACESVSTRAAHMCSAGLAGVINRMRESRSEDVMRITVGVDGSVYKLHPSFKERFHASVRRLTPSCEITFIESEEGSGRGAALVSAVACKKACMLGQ
value_type: log10 of EC50 (log10 of the value in µM)

{"columns": ["mol", "log10 of EC50"],
 "data": [
  ["COC[C@H](C)Oc1cc(/C=C/c2cc(F)cc(F)c2F)cc(C(=O)Nc2ccc(C(=O)O)cn2)c1", -0.11],
  ["COC[C@H](C)Oc1cc(/C=C/c2ccc([N+](=O)[O-])cc2)cc(C(=O)Nc2ccc(C(=O)O)cn2)c1", -0.55],
  ["COC[C@H](C)Oc1cc(/C=C/c2ccc([N+](=O)[O-])cc2)cc(C(=O)Nc2ccn(C)n2)c1", -0.07],
  ["COC[C@H](C)Oc1cc(CCc2c(F)cccc2F)cc(C(=O)Nc2ccn(C)n2)c1", -0.88],
  ["COC[C@H](C)Oc1cc(/C=C/c2ccccc2[N+](=O)[O-])cc(C(=O)Nc2ccn(C)n2)c1", -0.55],
  ["COC[C@H](C)Oc1cc(/C=C/c2c(F)cccc2F)cc(C(=O)Nc2ccn(C)n2)c1", -0.79],
  ["COC[C@H](C)Oc1cc(/C=C/c2cc(F)cc(F)c2F)cc(C(=O)Nc2ccn(C)n2)c1", -0.07],
  ["COC[C@H](C)Oc1cc(/C=C/c2ccccc2F)cc(C(=O)Nc2ccn(C)n2)c1", -1.10],
  ["COC[C@H](C)Oc1cc(CCc2c(F)cccc2F)cc(C(=O)Nc2ccc(C(=O)O)cn2)c1", -1.15],
  ["COC[C@H](C)Oc1cc(CCc2cc(F)cc(F)c2F)cc(C(=O)Nc2ccn(C)n2)c1", -0.07],
  ["COC[C@H](C)Oc1cc(CCc2ccc(F)cc2F)cc(C(=O)Nc2ccn(C)n2)c1", -0.74],
  ["COC[C@H](C)Oc1cc(/C=C/c2ccc(F)cc2F)cc(C(=O)Nc2ccn(C)n2)c1", -0.96],
  ["COC[C@H](C)Oc1cc(CCc2ccc(F)cc2)cc(C(=O)Nc2ccn(C)n2)c1", -0.67],
  ["COC[C@H](C)Oc1cc(/C=C/c2ccccc2OC)cc(C(=O)Nc2ccn(C)n2)c1", -0.94],
  ["COC[C@H](C)Oc1cc(/C=C/c2cc(F)ccc2F)cc(C(=O)Nc2ccn(C)n2)c1", -0.70],
  ["COC[C@H](C)Oc1cc(/C=C/c2ccc(F)cc2)cc(C(=O)Nc2ccn(C)n2)c1", -0.92],
  ["COC[C@H](C)Oc1cc(/C=C/c2cccc(C)n2)cc(C(=O)Nc2ccn(C)n2)c1", -0.88]
]}
